# System: KM12 colon
# procedureDetails: NCI tumour cell line growth inhibition, 48 h
measure: TGI

| compound | targetUnderTest | TGI |
| --- | --- | --- |
| Nc1nc(Cl)cc(NCC2(O)CCC2)n1 | KM12 colon | > 100 µM |
| O=c1nc2n3c4c(cccc4nc-2c(=O)[nH]1)CCC3 | KM12 colon | > 100 µM |
| C[C@H]1C[C@@H]2[C@H]([C@@H](O)C[C@@]3(C)[C@H]2CC[C@]3(O)C(=O)CO)[C@@]2(C)C=CC(=O)C=C12 | KM12 colon | > 100 µM |
| Cc1ccc(O)c(C(c2cccc(C(c3cc(C)ccc3O)c3cc(C)ccc3O)c2)c2cc(C)ccc2O)c1 | KM12 colon | 3.23 µM |
| C[C@@H](Oc1cc(-n2cnc3ccc(OC4CCN(C)CC4)cc32)sc1C(N)=O)c1ccccc1Cl | KM12 colon | 2.97 µM |

Input: I would be grateful if you could share the reported TGI for N#C/C(=C\c1cc(O)cc(O)c1)C(N)=O .
Output: > 100 µM

Input: One more compound: CC(=O)OC[C@H]1CN(OC(C)=O)C[C@@H](n2cc(C)c(=O)[nH]c2=O)O1
Output: > 100 µM

Input: One more compound: Cc1c(C)c2ccc(OCC(O)COC(C)C)c(C)c2oc1=O (stereo not given)
Output: > 100 µM

Input: One more compound: O=C1NC2c3c(I)sc(I)c3C(=O)C2O1 (stereo not given)
Output: 24.3 µM

Input: One more compound: Cc1c(C)n(CCCN2CCN(C)CC2)c2ccc(Oc3cccc(C(=O)N4CCN(CCc5ccc(F)cc5)CC4)c3)cc12
Output: 3.64 µM

###

# System: NCI-H226 lung
# procedureDetails: NCI tumour cell line growth inhibition, 48 h
measure: GI50

| compoundStructureString | GI50 |
| --- | --- |
| COc1ccc(Nc2nc3cc(N)cc(N)c3nc2-c2ccccc2)cc1 | 23.8 µM |
| Cc1cc2nc(NCCN)n(Cc3ccc(F)c(Cl)c3)c2cc1C | 19.8 µM |

Input: I would be grateful if you could share the reported GI50 for CCOC(=O)C1=CCCC[C@H]1S(=O)(=O)Nc1ccc(F)cc1Cl .
Output: 26.7 µM

Input: One more molecule: Cc1nn(CNc2ccccc2C(F)(F)F)c(=S)n1/N=C/c1cccc2cccnc12
Output: 56.2 µM

###

TGI listing for selected molecules.
# Tested on: NCI-H23 lung
# procedureDetails: NCI tumour cell line growth inhibition, 48 h

| molecule | TGI |
| --- | --- |
| COc1cc(/C=C/c2cc(/C=C/c3ccc(O)c(OC)c3)n(C(=O)c3ccc(Cl)cc3)n2)ccc1O | 7.95 µM |
| O=C(CSCC(=O)N/N=C/c1ccc2c(c1)OCO2)N/N=C/c1ccc2c(c1)OCO2 | > 100 µM |
| Cc1nc2sccn2c1C(=O)NN | > 100 µM |
| O=c1nc2n3c4c(cccc4nc-2c(=O)[nH]1)CCC3 | > 100 µM |

Input: I would be grateful if you could share the reported TGI for O=C(CSc1nc2c(n1Nc1ccccc1)-c1ccccc1SC2)Nc1nc(-c2ccc(Cl)cc2)cs1 .
Output: 97.1 µM

Input: One more molecule: NC1N=C(c2ccc(Cl)cc2)C2=C(N1)c1ccccc1CC2 (stereo unspecified)
Output: > 100 µM

###

# System: UACC-62 melanoma
# procedureDetails: NCI tumour cell line growth inhibition, 48 h
measure: TGI (µM)
Field format: number, assumed µM, no unit text.

Please review the entries below; each comes with its answer.
| compound | measure | endpointValue |
| --- | --- | --- |
| COc1ccc(Cc2c3cc(O)c(=O)cc-3ccn2C)cc1 | TGI | 61 |
| Cc1ccc2c(c1)SC1=Nc3sc4cc(C)ccc4[n+]3CN12 | TGI | 16.6 |
| O=C1N[C@@H]2[C@@H](O)[C@@H](O)[C@H](O)C[C@H]2c2cc3c(c(O)c21)OCCO3 | TGI | 1.38 |
| CCCCN1C(=O)C2Cc3c([nH]c4ccccc34)C(c3cccc(O)c3)N2C1=O (stereo not given) | TGI | 32.3 |
| COc1ccc(C2SC(N)=Nc3c2c(C)nn3C(=O)c2ccccc2O)cc1OC (stereo not given) | TGI | 7.93 |

Input: I would be grateful if you could share the reported TGI for NS(=O)(=O)OC[C@H]1C[C@@H](Nc2ccnc3cc(-c4cccc(SC(F)(F)F)c4)nn23)[C@H](O)[C@@H]1O .
Output: 0.195

Input: One more compound: COc1ccc(Nc2nc3cc(N)cc(N)c3nc2-c2ccccc2)cc1
Output: 30.5

Input: One more compound: CSc1ccc2c(cc1=O)[C@@H](NC(=O)c1cccc([N+](=O)[O-])c1)CCc1cc(O)c(O)c(O)c1-2
Output: 39.2

###

# Tested on: PC-3 prostate
# procedureDetails: NCI tumour cell line growth inhibition, 48 h; in the data active = GI50 below about 0.43 µM; inactive = the rest
Classes to choose from: yes (active), no (inactive)

Example entries begin here.
| compoundStructureString | assignedCategory |
| --- | --- |
| COc1ccc(Nc2nc3cc(N)cc(N)c3nc2-c2ccccc2)cc1 | no |
| COc1ccc(/C=C\c2cc(OC)c(OC)c(OC)c2)cc1OCC(=O)Nc1nc2ccc(F)cc2s1 | no |
| Cc1cc2nc(NCCN)n(Cc3ccc(F)c(Cl)c3)c2cc1C | no |
| O=C1Nc2c(ccc(Cl)c2Cl)/C1=C/c1cc(Br)c(O)c(Br)c1 | no |
| O=C(NCCCCN1CCOCC1)c1cc2ccccc2o1 | no |

Input: Short answer needed: outcome of this test for COc1ccccc1Nc1cc(O)c2c(=O)cc(-c3ccccc3)oc2c1 ?
Output: no

Input: One more compound: O=C1NC(=C(Cl)Cl)/C(=N/S(=O)(=O)N2CCCCC2)N1
Output: no

Input: One more compound: C=CN(C(=O)N1CCN(c2cc3c(cc2F)c(=O)c(C(=O)O)cn3C2CC2)CC1)c1nc(-c2ccc(OC)cc2)cs1
Output: no

Input: One more compound: Cc1c(C)n(CCCN2CCN(C)CC2)c2ccc(Oc3cccc(C(=O)N4CCN(CCc5ccc(F)cc5)CC4)c3)cc12
Output: no

Input: One more compound: COc1ccc(C2(Cl)c3ccccc3N(c3ccccc3)c3ccccc32)cc1
Output: yes

###

# Tested on: NCI-H522 lung
# procedureDetails: NCI tumour cell line growth inhibition, 48 h
measure: TGI (µM)
Field format: number, assumed µM, no unit text.

| compoundStructureString | TGI / µM |
| --- | --- |
| Clc1c(Cl)[n+](Cc2ccc3ccccc3c2)cn1Cc1ccc2ccccc2c1 | 2.67 |

Could you now look at the following molecule, please?
Input: I would be grateful if you could share the reported TGI for N#C/C(=C\c1ccc(F)cc1)c1nc(-c2cc3ccccc3oc2=O)cs1 .
Output: 74.4

###

# System: K-562 leukemia
# procedureDetails: NCI tumour cell line growth inhibition, 48 h; in the data active = GI50 below about 0.43 µM; inactive = the rest
Classes to choose from: True for active, False for inactive

| compoundStructureString | assignedCategory |
| --- | --- |
| O=C1Nc2c(ccc(Cl)c2Cl)/C1=C/c1cc(Br)c(O)c(Br)c1 | False |
| Cc1cc2nc(NCCN)n(Cc3ccc(F)c(Cl)c3)c2cc1C | False |
| CC(C)C[C@H](NC(=O)CNC(=O)c1cc(Cl)ccc1Cl)B(O)O | True |
| O=c1c2c(nc3n1CCS3)[nH]c1cc([N+](=O)[O-])ccc12 | False |
| Fc1ccc(-c2c(-c3ccncc3)nc3n2CCS3)cc1 | False |
| COc1c/c(=C2\C=c3ccccc3=N2)[nH]/c1=C\c1[nH]c(C)cc1C | True |

Now examine the next entry.
Input: Short answer needed: outcome of this test for C=CN(C(=O)N1CCN(c2cc3c(cc2F)c(=O)c(C(=O)O)cn3C2CC2)CC1)c1nc(-c2ccc(OC)cc2)cs1 ?
Output: False

###

# Tested on: COLO 205 colon
# procedureDetails: NCI tumour cell line growth inhibition, 48 h
Where a SMILES comes first, the peptide text is derived from it. [ ]: non-standard residue; d: D form. The star is where a group is joined. ξ: configuration not given here. ξNMe2Val = CC(C)C(C(=O)*)N(C)C; NMeV = CN[CH](C(=O)O)C(C)C; NHBn = c1ccc(CN*)cc1
TGI listing for selected molecules.

Please review the entries below; each comes with its answer.
| molecule | measure | endpointValue |
| --- | --- | --- |
| CC(C)C(NC(=O)C(C(C)C)N(C)C)C(=O)N(C)C(C(=O)N1CCCC1C(=O)N1CCCC1C(=O)NCc1ccccc1)C(C)C (stereo not drawn) (ξNMe2Val-V[NMeV]PP-NHBn; configuration not given here) | TGI | 0.16 nM |
| O=C1N[C@@H]2[C@@H](O)[C@@H](O)[C@H](O)C[C@H]2c2cc3c(c(O)c21)OCCO3 | TGI | 405 nM |
| NC(=O)C1CCCN1C(=O)C(Cc1cnc[nH]1)NC(=O)C1CCCC1 (stereo not drawn) | TGI | > 100000 nM |
| CC[C@]12C=CCN3CC[C@@]4(c5cc(N=O)c(OC)cc5N(C)[C@H]4[C@@](O)(C(=O)OC)[C@@H]1OC(C)=O)[C@@H]32 | TGI | > 100000 nM |
| Oc1c(Cl)cc(Cl)c(Cl)c1CNCCNCc1c(O)c(Cl)cc(Cl)c1Cl | TGI | > 50000 nM |

Input: Missing value: TGI, COLO 205 colon, entry Cc1ccc(C)n1-c1ccccc1C1C=Cn2c(=O)nnc3c(OC(C)C)c(OC(C)C)c(O)c1c32 (stereo not drawn) . Fill in?
Output: 27700 nM

Input: One more molecule: CCN(CC)CCCNc1nccc2c(C)c3c(cc12)c1cnccc1n3C
Output: 1400 nM

Input: One more molecule: Clc1c(Cl)[n+](Cc2ccc3ccccc3c2)cn1Cc1ccc2ccccc2c1
Output: 2570 nM
